System: gastric cancer organoid GA6894B
Test: Gastric cancer organoid viability (CTG 3D), GA6894B
Assay type: cell-based
Experimental: Day −1: Patient derived gastric cancer organoids (PDXOs) are sheared to uniform sizes and the required number of organoids are combined 1:1 with 50% Matrigel to produce the right size of the organoids to perform the screen. Day 0: Organoid seeding • 1. […] • 10. Place screening plates back into the incubator before adding compounds and day 0 reading. […] One is for day 0 reading (TO) and the other for reading at the end point. Day 0: Compounds treatment and Day 0 baseline CTG (cell titre glo) reading • 11. […]
pIC50: −log10 of the molar value.
REPORTED METRIC: pIC50

In [3]: df
Out[3]:
                                   compound                           system  reported_metric  test_value
0  CN[C@@H]1C[C@H]2O[C@@](C)([C@@H]1OC)n1c3ccccc3c3c4c(c5c6ccccc6n2c5c31)C(=O)NC4 [Staurosporine]  gastric cancer organoid GA6894B            pIC50        8.07

###

tested on: gastric cancer organoid GA0087B; experiment: Gastric cancer organoid viability (CTG 3D), GA0087B; format: cell-based
REPORTED METRIC: IC50 (nM)

>>> print(df.to_string())
                                   molecule  reported_metric  test_value
0  CN[C@@H]1C[C@H]2O[C@@](C)([C@@H]1OC)n1c3ccccc3c3c4c(c5c6ccccc6n2c5c31)C(=O)NC4 [Staurosporine]             IC50         2.9
